experiment: Selectivity index, ratio of GI50 for human HeLa cells to MIC for Mycobacterium bovis BCG ATCC 35743; format: toxicity, cell-based; details: pooled result: one value given for 3 cell lines, strains, targets or settings, read-out: Selectivity Index
REPORTED_PROPERTY: selectivity ratio
Write the value as a bare number.

For this compound ( O=C1CSc2ccccc2N1Cc1cn(Cc2ccc(F)cc2)nn1 ), measured selectivity ratio is 1.09

Entry O=C1CSc2ccccc2N1Cc1cn(Cc2cccc(Cl)c2)nn1 — recorded selectivity ratio = 1.05

selectivity ratio in this record for CO[C@H]1/C=C/O[C@@]2(C)Oc3c(C)c(O)c4c(O)c(c(/C=N/N5CCN(C)CC5)c(O)c4c3C2=O)NC(=O)/C(C)=C\C=C\[C@H](C)[C@H](O)[C@@H](C)[C@@H](O)[C@@H](C)[C@H](OC(C)=O)[C@@H]1C [RIFAMPIN] : 2440

The compound listed as O=C1CSc2ccccc2N1Cc1cn(Cc2ccc([N+](=O)[O-])cc2)nn1 has a reported selectivity ratio of 1.02

Reported selectivity ratio ( NNC(=O)c1ccncc1 [ISONIAZID] ) = 2220

Ref: ChEMBL document CHEMBL3763138
